Molecular target: H5VN04 trimeric HA (recombinant hemagglutinin) (influenza A virus (H5VN04), UniProt Q6DQ33)
Experiment: SPR
Kindly supply the reported Kd values for the records listed here.
One number for each entry, in nM.

Entry A66 CDR-H2 variant IIPIFRTA (germline CDR-H2 with Arg55 restored) scFv (scFv, V domains shown) VH: QVQLVQSGAEVKKPGSSVKVSCKASGGPFSMTAFTWLRQAPGQGLEWMGGIIPIFRTAKYAQKFQGRVTITADESTNTANMELTSLKSEDTAVYYCARTLSSYQPNNDAFAIWGQGTMVTVSS VL: EIVLTQSPATLSLSPGERATLSCRASQSVSSYLAWYQQKPGQAPRLLIYDASNRATGIPARFSGSGSGTDFTLTISRLEPEDFAVYFCQQYGSSPQFGQGTRLEIK needs its Kd filled in; supply it.
3.2

Hey, can you go through the list below and give me Kd for every item?
1. F10 CDR-H2 variant IIPMFGTA (germline CDR-H2 with Met53 restored) scFv (scFv, V domains shown) VH: QVQLVQSGAEVKKPGSSVKVSCTSSEVTFSSFAISWVRQAPGQGLEWLGGIIPMFGTANYAQKFQGRVTITADQSTRTAYMDLRSLRSEDTAVYYCARSPSYICSGGTCVFDHWGQGTLVTVSS VL: QPGLTQPPSVSKGLRQTATLTCTGNSNNVGNQGAAWLQQHQGHPPKLLSYRNNDRPSGISERFSASRSGNTASLTITGLQPEDEADYYCSTWDSSLSAVVFGGGTKLTVL
2. A66 scFv (wild type) (scFv, V domains shown) VH: QVQLVQSGAEVKKPGSSVKVSCKASGGPFSMTAFTWLRQAPGQGLEWMGGISPIFRTPKYAQKFQGRVTITADESTNTANMELTSLKSEDTAVYYCARTLSSYQPNNDAFAIWGQGTMVTVSS VL: EIVLTQSPATLSLSPGERATLSCRASQSVSSYLAWYQQKPGQAPRLLIYDASNRATGIPARFSGSGSGTDFTLTISRLEPEDFAVYFCQQYGSSPQFGQGTRLEIK

[270, 0.11]
